- tgt: Histamine H2 receptor (Homo sapiens)
- Sequence (P25021 whole entry): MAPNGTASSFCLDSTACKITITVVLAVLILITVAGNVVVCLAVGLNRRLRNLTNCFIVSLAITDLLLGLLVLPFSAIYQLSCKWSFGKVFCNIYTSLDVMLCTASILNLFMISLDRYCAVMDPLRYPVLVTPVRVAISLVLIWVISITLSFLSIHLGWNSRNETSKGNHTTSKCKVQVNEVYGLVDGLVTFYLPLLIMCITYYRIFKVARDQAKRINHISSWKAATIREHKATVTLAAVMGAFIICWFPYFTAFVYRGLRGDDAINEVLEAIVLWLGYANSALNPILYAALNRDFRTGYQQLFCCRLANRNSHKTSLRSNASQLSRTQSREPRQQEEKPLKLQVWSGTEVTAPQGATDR
- Type: functional, cell-based
Please respond with reported AC50 for every item in the list.

Problem: Identify the reported AC50 for the following entry. CC(=O)/N=c1/sc(S(N)(=O)=O)nn1C [METHAZOLAMIDE]
Solution: > 10 µM

Problem: Identify the reported AC50 for the following entry. NC(=O)CCC/N=C(\c1ccc(Cl)cc1)c1cc(F)ccc1O [PROGABIDE]
Solution: > 10 µM

Problem: Identify the reported AC50 for the following entry. `Clc1cccc(Cl)c1N=C1NCCN1`
Solution: 0.39 µM

Problem: Identify the reported AC50 for the following entry. `C#C[C@]1(O)CC[C@H]2[C@@H]3CCc4cc(OC)ccc4[C@H]3CC[C@@]21C`
Solution: > 30 µM

Problem: Identify the reported AC50 for the following entry. `Cc1ccc(NC(=O)C2(c3ccc4c(c3)OC(F)(F)O4)CC2)nc1-c1cccc(C(=O)O)c1`
Solution: > 30 µM

Problem: Identify the reported AC50 for the following entry. `CC(=O)S[C@@H]1CC2=CC(=O)CC[C@]2(C)[C@H]2CC[C@@]3(C)[C@@H](CC[C@@]34CCC(=O)O4)[C@H]12`
Solution: > 10 µM

Problem: Identify the reported AC50 for the following entry. Nc1nc2c(c(=O)[nH]1)N(C=O)C(CNc1ccc(C(=O)N[C@@H](CCC(=O)O)C(=O)O)cc1)CN2 (stereo partly drawn)
Solution: > 30 µM

Problem: Identify the reported AC50 for the following entry. CCCCCCOC(=O)CCC(=O)CN [HEXAMINOLEVULINATE]
Solution: > 30 µM

Problem: Identify the reported AC50 for the following entry. `CCn1cc(C(=O)O)c(=O)c2cc(F)c(N3CCN(C)CC3)cc21`
Solution: > 30 µM

Problem: Identify the reported AC50 for the following entry. `CC(C)c1cc2c(cc1S(=O)(=O)O)[C@@]1(C)CCC[C@@](C)(C(=O)O)[C@@H]1CC2`
Solution: > 30 µM

Problem: Identify the reported AC50 for the following entry. `COc1ccc(/C=C/C(=O)Nc2ccccc2C(=O)O)cc1OC`
Solution: > 30 µM

Problem: Identify the reported AC50 for the following entry. CC(CCc1ccccc1)NC(C)C(O)c1ccc(O)cc1 (stereo not drawn)
Solution: > 10 µM

Problem: Identify the reported AC50 for the following entry. `O=c1oc2ccccc2c(O)c1Cc1c(O)c2ccccc2oc1=O`
Solution: > 10 µM

Problem: Identify the reported AC50 for the following entry. CC(=O)Oc1ccccc1C(=O)Nc1ncc([N+](=O)[O-])s1 [NITAZOXANIDE]
Solution: > 30 µM

Problem: Identify the reported AC50 for the following entry. `COc1ccc2c(c1)[C@]13CCCC[C@@H]1[C@H](C2)N(C)CC3`
Solution: > 10 µM

Problem: Identify the reported AC50 for the following entry. `C[C@]12CC[C@H](O)CC1=CC[C@@H]1[C@@H]2CC[C@]2(C)C(c3cccnc3)=CC[C@@H]12`
Solution: > 10 µM

Problem: Identify the reported AC50 for the following entry. CCCC(C)(COC(N)=O)COC(=O)NC(C)C (stereo not drawn)
Solution: > 10 µM

Problem: Identify the reported AC50 for the following entry. `COc1cc(OC)c(C(=O)CCCN2CCCC2)c(OC)c1`
Solution: > 30 µM

====

- tgt: Bile acid receptor (Homo sapiens)
- Sequence (Q96RI1 whole entry): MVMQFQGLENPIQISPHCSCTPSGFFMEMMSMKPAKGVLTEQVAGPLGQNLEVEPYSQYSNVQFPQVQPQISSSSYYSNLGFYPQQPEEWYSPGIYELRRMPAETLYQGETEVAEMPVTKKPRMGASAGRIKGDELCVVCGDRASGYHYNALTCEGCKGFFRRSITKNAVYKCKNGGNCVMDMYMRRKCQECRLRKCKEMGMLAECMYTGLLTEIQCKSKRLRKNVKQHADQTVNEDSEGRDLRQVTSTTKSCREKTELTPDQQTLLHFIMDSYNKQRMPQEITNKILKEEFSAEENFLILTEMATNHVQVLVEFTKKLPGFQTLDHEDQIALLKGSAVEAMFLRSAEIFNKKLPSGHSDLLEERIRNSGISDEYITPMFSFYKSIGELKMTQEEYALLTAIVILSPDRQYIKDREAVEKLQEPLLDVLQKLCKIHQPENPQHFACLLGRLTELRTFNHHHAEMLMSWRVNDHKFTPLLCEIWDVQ
- Type: functional
measurement_type: AC50 (µM)
Lab book: enter the figure in µM, no units written.

Problem: Identify the reported AC50 for the following entry. `CC(/C=C1\SC(=S)N(CC(=O)O)C1=O)=C\c1ccccc1`
Solution: 4

Problem: Identify the reported AC50 for the following entry. CCOc1cc(CC(=O)N[C@@H](CC(C)C)c2ccccc2N2CCCCC2)ccc1C(=O)O [REPAGLINIDE]
Solution: 27

====

- tgt: Thromboxane A2 receptor (Homo sapiens, UniProt P21731)
- Sequence (P21731 whole entry): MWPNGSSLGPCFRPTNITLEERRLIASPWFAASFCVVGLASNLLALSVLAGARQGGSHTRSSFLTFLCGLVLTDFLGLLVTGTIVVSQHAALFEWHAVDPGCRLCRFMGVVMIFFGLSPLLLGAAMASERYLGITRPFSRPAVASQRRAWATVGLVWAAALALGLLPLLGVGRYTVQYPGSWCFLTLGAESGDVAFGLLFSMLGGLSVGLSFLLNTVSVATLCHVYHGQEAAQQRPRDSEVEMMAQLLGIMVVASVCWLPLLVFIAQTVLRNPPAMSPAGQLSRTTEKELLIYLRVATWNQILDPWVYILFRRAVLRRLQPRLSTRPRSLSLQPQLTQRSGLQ
- Format: functional, cell-based
measurement_type: AC50

Problem: Identify the reported AC50 for the following entry. `CN(C)CCCN1C(=O)c2cc([N+](=O)[O-])ccc2Oc2ccccc21`
Solution: > 30 µM

Problem: Identify the reported AC50 for the following entry. `CCOC(=O)[C@H](CCc1ccccc1)N[C@H]1CS[C@H](c2cccs2)CN(CC(=O)O)C1=O`
Solution: > 30 µM

Problem: Identify the reported AC50 for the following entry. `C[n+]1ccccc1/C=N/O`
Solution: > 30 µM

Problem: Identify the reported AC50 for the following entry. O=[N+]([O-])O[C@H]1CO[C@H]2[C@@H]1OC[C@H]2O[N+](=O)[O-] [ISOSORBIDE DINITRATE]
Solution: > 30 µM

Problem: Identify the reported AC50 for the following entry. `OC(CCCN1CCCCC1)(c1ccccc1)c1ccccc1`
Solution: > 30 µM

Problem: Identify the reported AC50 for the following entry. `CN(C)c1cc(CNCC(C)(C)C)c(O)c2c1C[C@H]1C[C@H]3[C@H](N(C)C)C(O)=C(C(N)=O)C(=O)[C@@]3(O)C(O)=C1C2=O`
Solution: > 10 µM

Problem: Identify the reported AC50 for the following entry. `O=C(Nc1nc(-c2cc(Cl)cs2)c(N2CCN(C3CCCCC3)CC2)s1)c1cnc(N2CCC(C(=O)O)CC2)c(Cl)c1`
Solution: > 10 µM

Problem: Identify the reported AC50 for the following entry. `COCCOc1cnc(NS(=O)(=O)c2ccccc2)nc1`
Solution: > 30 µM

====

Please respond with reported AC50 for every item in the list.
- tgt: Voltage-dependent L-type calcium channel subunit alpha-1C (Rattus norvegicus, UniProt P22002)
- Sequence (P22002 whole entry): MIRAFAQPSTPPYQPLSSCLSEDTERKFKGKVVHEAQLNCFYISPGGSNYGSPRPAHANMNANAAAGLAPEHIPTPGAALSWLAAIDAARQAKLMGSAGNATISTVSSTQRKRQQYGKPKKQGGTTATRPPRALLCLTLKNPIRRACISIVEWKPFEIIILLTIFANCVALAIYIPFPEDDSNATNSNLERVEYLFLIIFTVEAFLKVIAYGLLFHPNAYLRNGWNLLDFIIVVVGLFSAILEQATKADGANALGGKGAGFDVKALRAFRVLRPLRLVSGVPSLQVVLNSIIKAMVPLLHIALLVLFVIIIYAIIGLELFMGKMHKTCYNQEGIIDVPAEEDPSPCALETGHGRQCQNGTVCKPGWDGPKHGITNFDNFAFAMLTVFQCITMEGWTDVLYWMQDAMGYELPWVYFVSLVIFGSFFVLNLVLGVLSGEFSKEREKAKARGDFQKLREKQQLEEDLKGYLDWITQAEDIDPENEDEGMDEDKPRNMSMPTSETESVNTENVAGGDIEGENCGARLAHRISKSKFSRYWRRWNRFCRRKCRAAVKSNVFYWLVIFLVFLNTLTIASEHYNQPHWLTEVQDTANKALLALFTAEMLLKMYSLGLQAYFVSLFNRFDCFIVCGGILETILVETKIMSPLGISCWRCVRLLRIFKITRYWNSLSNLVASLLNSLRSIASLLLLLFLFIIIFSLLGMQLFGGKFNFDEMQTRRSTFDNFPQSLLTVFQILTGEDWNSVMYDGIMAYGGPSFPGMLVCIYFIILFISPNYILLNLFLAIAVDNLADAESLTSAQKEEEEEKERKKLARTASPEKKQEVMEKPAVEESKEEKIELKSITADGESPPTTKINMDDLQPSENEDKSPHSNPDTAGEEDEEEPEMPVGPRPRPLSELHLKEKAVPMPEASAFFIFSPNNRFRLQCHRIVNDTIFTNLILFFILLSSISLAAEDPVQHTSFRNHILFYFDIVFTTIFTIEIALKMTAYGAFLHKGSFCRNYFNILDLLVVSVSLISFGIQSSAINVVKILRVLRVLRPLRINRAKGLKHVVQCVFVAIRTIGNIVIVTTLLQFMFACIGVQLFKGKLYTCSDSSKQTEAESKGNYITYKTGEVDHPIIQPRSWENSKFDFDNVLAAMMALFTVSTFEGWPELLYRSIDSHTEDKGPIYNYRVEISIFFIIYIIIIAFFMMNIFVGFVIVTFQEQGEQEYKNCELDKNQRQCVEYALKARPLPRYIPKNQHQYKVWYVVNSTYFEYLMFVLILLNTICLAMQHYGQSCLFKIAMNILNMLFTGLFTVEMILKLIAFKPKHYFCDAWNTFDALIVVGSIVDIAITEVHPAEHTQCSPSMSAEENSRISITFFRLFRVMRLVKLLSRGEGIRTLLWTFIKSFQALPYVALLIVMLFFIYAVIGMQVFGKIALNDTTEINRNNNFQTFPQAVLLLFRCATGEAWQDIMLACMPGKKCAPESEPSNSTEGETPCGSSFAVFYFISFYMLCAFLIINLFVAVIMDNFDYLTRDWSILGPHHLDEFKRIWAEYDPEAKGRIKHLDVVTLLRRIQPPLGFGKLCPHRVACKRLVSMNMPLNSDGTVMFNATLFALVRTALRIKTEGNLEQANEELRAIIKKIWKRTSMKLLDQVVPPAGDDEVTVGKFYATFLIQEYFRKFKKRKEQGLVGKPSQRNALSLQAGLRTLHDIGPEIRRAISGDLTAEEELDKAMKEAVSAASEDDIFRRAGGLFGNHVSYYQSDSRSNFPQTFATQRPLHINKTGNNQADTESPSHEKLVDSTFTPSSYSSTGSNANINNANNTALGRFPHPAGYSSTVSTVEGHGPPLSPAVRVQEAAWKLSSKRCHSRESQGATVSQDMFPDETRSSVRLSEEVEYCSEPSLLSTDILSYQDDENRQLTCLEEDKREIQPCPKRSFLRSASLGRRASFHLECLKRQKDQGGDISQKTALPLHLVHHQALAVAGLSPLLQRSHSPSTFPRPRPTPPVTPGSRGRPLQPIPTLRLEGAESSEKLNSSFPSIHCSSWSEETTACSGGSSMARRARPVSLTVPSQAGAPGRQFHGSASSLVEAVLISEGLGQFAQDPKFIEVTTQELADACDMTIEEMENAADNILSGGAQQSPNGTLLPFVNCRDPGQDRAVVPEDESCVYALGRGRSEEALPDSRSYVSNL
- Format: functional

Problem: Identify the reported AC50 for the following entry. `CC(=O)c1ccc2c(c1)N(CCCN1CCC(CCO)CC1)c1ccccc1S2`
Solution: > 30 µM

Problem: Identify the reported AC50 for the following entry. `CN(C)c1cc(NC(=O)CNC(C)(C)C)c(O)c2c1C[C@H]1C[C@H]3[C@H](N(C)C)C(O)=C(C(N)=O)C(=O)[C@@]3(O)C(O)=C1C2=O`
Solution: > 30 µM

Problem: Identify the reported AC50 for the following entry. `CC(/C=C1\SC(=S)N(CC(=O)O)C1=O)=C\c1ccccc1`
Solution: > 30 µM

Problem: Identify the reported AC50 for the following entry. Cc1cccc(N(C)C(=S)Oc2ccc3ccccc3c2)c1 [TOLNAFTATE]
Solution: 25 µM

Problem: Identify the reported AC50 for the following entry. `CCCN(CCC)CCc1cccc2c1CC(=O)N2`
Solution: > 10 µM

Problem: Identify the reported AC50 for the following entry. `CN(c1nccc(=O)[nH]1)C1CCN(c2nc3ccccc3n2Cc2ccc(F)cc2)CC1`
Solution: > 30 µM

Problem: Identify the reported AC50 for the following entry. `CC(C)=CCOc1ccc(/C=C/C(=O)c2ccc(OCC=C(C)C)cc2OCC(=O)O)cc1`
Solution: > 30 µM

Problem: Identify the reported AC50 for the following entry. CC1(C)O[C@@H]2[C@@H](CO[C@@]3(COS(N)(=O)=O)OC(C)(C)O[C@@H]23)O1 [TOPIRAMATE]
Solution: > 10 µM

Problem: Identify the reported AC50 for the following entry. C[C@@H]1CCC[C@H](C)N1NC(=O)c1ccc(Cl)c(S(N)(=O)=O)c1 [CLOPAMIDE]
Solution: > 30 µM

Problem: Identify the reported AC50 for the following entry. `CCCCC[C@H](O)/C=C/[C@H]1[C@H](O)CC(=O)[C@@H]1C/C=C\CCCC(=O)O`
Solution: > 30 µM

Problem: Identify the reported AC50 for the following entry. `CCCCCCNC(=O)n1cc(F)c(=O)[nH]c1=O`
Solution: > 30 µM

Problem: Identify the reported AC50 for the following entry. CCC(C)(Oc1ccc(C2(c3ccc(OC(C)(CC)C(=O)O)cc3)CCCCC2)cc1)C(=O)O (centres undefined) [CLINOFIBRATE]
Solution: > 30 µM

Problem: Identify the reported AC50 for the following entry. `COC(=O)N[C@@H](C)CNc1nccc(-c2cn(C(C)C)nc2-c2cc(Cl)cc(NS(C)(=O)=O)c2F)n1`
Solution: > 30 µM

Problem: Identify the reported AC50 for the following entry. `CNC(=O)Oc1ccc2c(c1)[C@]1(C)CCN(C)[C@@H]1N2C`
Solution: > 30 µM

Problem: Identify the reported AC50 for the following entry. `N[C@H](Cc1cc(I)c(Oc2cc(I)c(O)c(I)c2)c(I)c1)C(=O)O`
Solution: > 10 µM

Problem: Identify the reported AC50 for the following entry. `COc1ccc(/C=C/C(=O)Nc2ccccc2C(=O)O)cc1OC`
Solution: > 30 µM

Problem: Identify the reported AC50 for the following entry. `Nc1ccn([C@@H]2O[C@H](CO)[C@@H](O)C2(F)F)c(=O)n1`
Solution: > 10 µM

Problem: Identify the reported AC50 for the following entry. CCC(=O)OCC(=O)[C@@]1(OC(=O)CC)[C@@H](C)C[C@H]2[C@@H]3CCC4=CC(=O)C=C[C@]4(C)[C@@]3(F)[C@@H](O)C[C@@]21C [BETAMETHASONE DIPROPIONATE]
Solution: > 30 µM

Problem: Identify the reported AC50 for the following entry. `Nc1nc(O)c2ncn(COC(CO)CO)c2n1`
Solution: > 30 µM

Problem: Identify the reported AC50 for the following entry. COc1cccc(N(C)C(=S)Oc2ccc3c(c2)CCCC3)n1 [LIRANAFTATE]
Solution: > 30 µM

Problem: Identify the reported AC50 for the following entry. CCCC(C)(COC(N)=O)COC(=O)NC(C)C (centres undefined)
Solution: > 10 µM

Problem: Identify the reported AC50 for the following entry. `COC(=O)[C@H](c1ccccc1Cl)N1CCc2sccc2C1`
Solution: > 30 µM

Problem: Identify the reported AC50 for the following entry. `Clc1cccc(Cl)c1N=C1NCCN1`
Solution: > 10 µM

Problem: Identify the reported AC50 for the following entry. CC(=O)Oc1ccccc1C(=O)Nc1ncc([N+](=O)[O-])s1 [NITAZOXANIDE]
Solution: > 30 µM

Problem: Identify the reported AC50 for the following entry. `COC1=C(OC)C(=O)C(CCCCCCCCCCO)=C(C)C1=O`
Solution: > 10 µM

Problem: Identify the reported AC50 for the following entry. `O=C1NC(=O)C(c2ccccc2)(c2ccccc2)N1`
Solution: > 10 µM

Problem: Identify the reported AC50 for the following entry. Nc1nc(F)nc2c1ncn2[C@@H]1O[C@H](COP(=O)(O)O)[C@@H](O)[C@@H]1O [FLUDARABINE PHOSPHATE]
Solution: > 30 µM

Problem: Identify the reported AC50 for the following entry. `C=C[C@@]1(C)CC(=O)[C@]2(O)[C@@]3(C)[C@@H](O)CCC(C)(C)[C@@H]3[C@H](OC(=O)CCN(C)C)[C@H](OC(C)=O)[C@@]2(C)O1`
Solution: > 30 µM

Problem: Identify the reported AC50 for the following entry. `COc1ccc2c(c1)[C@]13CCCC[C@@H]1[C@H](C2)N(C)CC3`
Solution: > 10 µM

Problem: Identify the reported AC50 for the following entry. COc1c(O[C@@H]2O[C@H](CO)[C@@H](O)[C@H](O)[C@H]2O)cc2c(c1OC)-c1ccc(SC)c(=O)cc1[C@@H](NC(C)=O)CC2 [THIOCOLCHICOSIDE]
Solution: > 30 µM

Problem: Identify the reported AC50 for the following entry. CC(=O)OCC(=O)[C@@]1(O)CC[C@H]2[C@@H]3CCC4=CC(=O)CC[C@]4(C)C3=CC[C@@]21C [ANECORTAVE ACETATE]
Solution: > 10 µM

Problem: Identify the reported AC50 for the following entry. `CCN(CC)CC(=O)Oc1ccc(NC(C)=O)cc1`
Solution: > 30 µM

Problem: Identify the reported AC50 for the following entry. `CNCC[C@H](Oc1cccc2ccccc12)c1cccs1`
Solution: > 10 µM

Problem: Identify the reported AC50 for the following entry. CC(NCCc1ccc(O)cc1)C(O)c1ccc(O)cc1 (centres undefined)
Solution: > 10 µM

# credit: ChEMBL document CHEMBL5291721
